target: Glutamate NMDA receptor; assay: Evaluated for its affinity to bind PCP N-methyl-D-aspartate (NMDA) glutamate receptor in rat brain membrane using [3H]MK-801 as radioligand; format: cell membranes
Mark 1 only when IC50 stays strictly below 600 nM. Values equal to the cut-off are -1.

Problem: Consider the compound C[C@]12N[C@H](Cc3cc4ccccc4cc31)c1ccccc12 (racemic) . Is its IC50 strictly less than 600 nM?
Result: -1

Problem: Consider the compound C[C@@]12Cc3ccccc3C[C@@H](N1)c1ccccc12 (racemic) . Is its IC50 strictly less than 600 nM?
Result: 1

Problem: Consider the compound CN1[C@@H]2Cc3ccccc3C[C@@]1(C)c1ccccc12 (racemic) . Is its IC50 strictly less than 600 nM?
Result: 1

Problem: Consider the compound CCCC[C@@]12Cc3ccccc3C[C@@](C)(N1)c1ccccc12 (racemic) . Is its IC50 strictly less than 600 nM?
Result: -1

Problem: Consider the compound CC12Cc3ccccc3[C@H](Cc3ccccc31)N2 (mixture of isomers) . Is its IC50 strictly less than 600 nM?
Result: -1

Problem: Consider the compound C[C@@]12Cc3ccc(Br)cc3C[C@@H](N1)c1ccccc12 (racemic) . Is its IC50 strictly less than 600 nM?
Result: 1

Problem: Consider the compound C[C@@]12N[C@@H](c3ccccc31)[C@H](O)c1ccccc12 (racemic) . Is its IC50 strictly less than 600 nM?
Result: -1

Problem: Consider the compound C[C@]12N[C@H](Cc3ccccc31)c1c2ccc2ccccc12 (racemic) . Is its IC50 strictly less than 600 nM?
Result: -1

Problem: Consider the compound C[C@@]12Cc3ccccc3[C@@H](C=N1)c1ccccc12 (racemic) . Is its IC50 strictly less than 600 nM?
Result: -1

Problem: Consider the compound C[C@]12N[C@H](Cc3ccccc31)c1cc3ccccc3cc12 (racemic) . Is its IC50 strictly less than 600 nM?
Result: -1

Problem: Consider the compound COc1ccc2c(c1)C[C@H]1N[C@@](C)(C2)c2ccccc21 (racemic) . Is its IC50 strictly less than 600 nM?
Result: 1

Problem: Consider the compound C[C@@]12Cc3ccccc3C[C@@H](N1)c1ccccc12 (stereo in doubt; (+)-15) . Is its IC50 strictly less than 600 nM?
Result: 1

Problem: Consider the compound Cc1ccc2c(c1)[C@@]1(C)N[C@@H]2Cc2ccccc21 (racemic) . Is its IC50 strictly less than 600 nM?
Result: 1

Problem: Consider the compound "C[C@]12Cc3ccccc3C[C@](C)(N1)c1ccccc12" . Is its IC50 strictly less than 600 nM?
Result: 1

Problem: Consider the compound C[C@@]12Cc3ccccc3C[C@@H](N1)c1cc(Cl)ccc12 (racemic) . Is its IC50 strictly less than 600 nM?
Result: 1

Problem: Consider the compound "C[C@]12N[C@H](Cc3ccccc31)Cc1ccccc12" . Is its IC50 strictly less than 600 nM?
Result: 1

Problem: Consider the compound "C[C@]12N[C@](C)(c3ccccc31)c1ccccc12" . Is its IC50 strictly less than 600 nM?
Result: 1

Problem: Consider the compound Cc1ccc2c(c1)[C@H]1Cc3ccccc3[C@]2(C)N1 (racemic) . Is its IC50 strictly less than 600 nM?
Result: 1

Problem: Consider the compound C[C@@]12Cc3ccccc3C[C@@H](N1)c1c(Cl)cccc12 (racemic) . Is its IC50 strictly less than 600 nM?
Result: -1

Problem: Consider the compound CC12Cc3ccccc3[C@@H](N1)c1ccccc12 (mixture of isomers) . Is its IC50 strictly less than 600 nM?
Result: 1

Problem: Consider the compound C[C@]12Cc3ccccc3[C@@H]3[C@H](c4ccccc41)N32 (mixture of isomers) . Is its IC50 strictly less than 600 nM?
Result: -1

Problem: Consider the compound C[C@@]12Cc3ccccc3C[C@@H](N1)c1cc(Br)ccc12 (racemic) . Is its IC50 strictly less than 600 nM?
Result: 1

Problem: Consider the compound C[C@@]12Cc3ccc(O)cc3C[C@@H](N1)c1ccccc12 (racemic) . Is its IC50 strictly less than 600 nM?
Result: 1

Problem: Consider the compound Cc1cccc2c1C[C@H]1N[C@]2(C)c2ccccc21 (racemic) . Is its IC50 strictly less than 600 nM?
Result: -1

Problem: Consider the compound C[C@@]12Cc3ccccc3C[C@@H](N1)c1ccc(Br)cc12 (racemic) . Is its IC50 strictly less than 600 nM?
Result: 1

Problem: Consider the compound C[C@]12N[C@](C)(Cc3ccccc31)c1ccccc12 (racemic) . Is its IC50 strictly less than 600 nM?
Result: 1

Problem: Consider the compound Cc1ccc2c(c1)[C@]1(C)N[C@H](C2)c2ccccc21 (racemic) . Is its IC50 strictly less than 600 nM?
Result: 1

Problem: Consider the compound Cc1cccc2c1[C@H]1Cc3ccccc3[C@]2(C)N1 (racemic) . Is its IC50 strictly less than 600 nM?
Result: -1

Problem: Consider the compound C[C@@]12Cc3ccc(Cl)cc3C[C@@H](N1)c1ccccc12 (racemic) . Is its IC50 strictly less than 600 nM?
Result: 1

Problem: Consider the compound C[C@@]12Cc3cc(Br)ccc3C[C@@H](N1)c1ccccc12 (racemic) . Is its IC50 strictly less than 600 nM?
Result: 1

Problem: Consider the compound C[C@@]12Cc3ccccc3C[C@@H](N1)c1ccccc12 (stereo in doubt; (-)-15) . Is its IC50 strictly less than 600 nM?
Result: 1

Problem: Consider the compound CC[C@@]12Cc3ccccc3C[C@@H](N1)c1ccccc12 (racemic) . Is its IC50 strictly less than 600 nM?
Result: -1

Problem: Consider the compound CCN1[C@@H]2Cc3ccccc3C[C@@]1(C)c1ccccc12 (racemic) . Is its IC50 strictly less than 600 nM?
Result: -1

Problem: Consider the compound C[C@]12Cc3ccccc3C[C@H](c3ccccc31)[N+]2(C)C (racemic) . Is its IC50 strictly less than 600 nM?
Result: -1

Problem: Consider the compound "c1ccc2c(c1)C[C@@H]1N[C@H](C2)c2ccccc21" . Is its IC50 strictly less than 600 nM?
Result: -1

Problem: Consider the compound C[C@]12Cc3ccccc3C[C@](O)(N1)c1ccccc12 (racemic) . Is its IC50 strictly less than 600 nM?
Result: 1

Problem: Consider the compound C[C@]12N[C@H](Cc3c1ccc1ccccc31)c1ccccc12 (racemic) . Is its IC50 strictly less than 600 nM?
Result: -1

Problem: Consider the compound Cc1ccc2c(c1)C[C@H]1N[C@]2(C)c2ccccc21 (racemic) . Is its IC50 strictly less than 600 nM?
Result: -1

Problem: Consider the compound C[C@]12Cc3ccccc3C[C@H](c3ccccc31)N2Cc1ccccc1 (racemic) . Is its IC50 strictly less than 600 nM?
Result: -1
